Molecular target: T1, human FcRH5 protein fragment (soluble) (human, UniProt Q96RD9 16-851)
T1 construct: whole entry named; also called soluble human FcRH5; Human FcRH5 (BIACORE analyte)
T1 sequence: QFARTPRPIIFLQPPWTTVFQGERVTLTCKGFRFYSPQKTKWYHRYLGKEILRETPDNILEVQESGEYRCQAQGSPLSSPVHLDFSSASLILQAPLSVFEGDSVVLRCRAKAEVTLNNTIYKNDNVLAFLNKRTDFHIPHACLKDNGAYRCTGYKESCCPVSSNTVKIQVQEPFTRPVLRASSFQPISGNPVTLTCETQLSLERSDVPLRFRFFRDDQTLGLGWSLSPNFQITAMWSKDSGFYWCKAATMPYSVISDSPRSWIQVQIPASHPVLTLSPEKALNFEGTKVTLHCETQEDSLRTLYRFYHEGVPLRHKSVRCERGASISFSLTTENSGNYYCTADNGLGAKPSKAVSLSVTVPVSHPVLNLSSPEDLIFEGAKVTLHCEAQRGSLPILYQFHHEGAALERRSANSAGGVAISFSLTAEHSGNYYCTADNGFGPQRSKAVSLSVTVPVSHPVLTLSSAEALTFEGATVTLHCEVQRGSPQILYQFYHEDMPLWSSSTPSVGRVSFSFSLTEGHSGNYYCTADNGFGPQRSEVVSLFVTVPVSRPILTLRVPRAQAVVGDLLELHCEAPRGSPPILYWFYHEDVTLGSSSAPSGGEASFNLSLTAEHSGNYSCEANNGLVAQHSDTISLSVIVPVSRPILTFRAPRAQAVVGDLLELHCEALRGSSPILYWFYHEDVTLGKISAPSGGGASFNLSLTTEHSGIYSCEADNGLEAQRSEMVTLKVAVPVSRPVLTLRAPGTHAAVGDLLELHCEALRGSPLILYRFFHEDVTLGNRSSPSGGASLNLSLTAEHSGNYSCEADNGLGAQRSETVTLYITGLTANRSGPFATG
Assay: SPR, hIgG capture, screening
outcome_measure: Kd
Please report the result as a number followed by the unit.

hu1G7.v1 heavy chain M64L with light chain of hu1G7.v1.3 (antibody, V domains shown, human IgG) VH: EVQLVESGPGLVKPSETLSLTCTVSGFSLTRFGVHWVRQPPGKGLEWLGVIWRGGSTDYNAAFLSRLTISKDNSKNQVSLKLSSVTAADTAVYYCSNHYYGSSDYALDNWGQGTLVTVSS VL: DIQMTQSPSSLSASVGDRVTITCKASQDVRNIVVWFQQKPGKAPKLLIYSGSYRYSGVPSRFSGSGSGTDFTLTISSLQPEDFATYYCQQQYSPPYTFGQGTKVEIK ... 0.0024 µM
hu1G7.v1 heavy chain W52L with light chain of hu1G7.v1.6 (antibody, V domains shown, human IgG) VH: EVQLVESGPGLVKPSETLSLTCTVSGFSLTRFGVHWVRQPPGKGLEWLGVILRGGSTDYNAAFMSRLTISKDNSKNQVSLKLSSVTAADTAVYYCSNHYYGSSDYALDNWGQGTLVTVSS VL: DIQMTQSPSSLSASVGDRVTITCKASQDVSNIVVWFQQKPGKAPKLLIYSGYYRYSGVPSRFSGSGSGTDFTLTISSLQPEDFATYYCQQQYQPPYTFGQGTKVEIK ... 0.25 µM
hu1G7.v1 heavy chain W52H with light chain of hu1G7.v1.5 (antibody, V domains shown, human IgG) VH: EVQLVESGPGLVKPSETLSLTCTVSGFSLTRFGVHWVRQPPGKGLEWLGVIHRGGSTDYNAAFMSRLTISKDNSKNQVSLKLSSVTAADTAVYYCSNHYYGSSDYALDNWGQGTLVTVSS VL: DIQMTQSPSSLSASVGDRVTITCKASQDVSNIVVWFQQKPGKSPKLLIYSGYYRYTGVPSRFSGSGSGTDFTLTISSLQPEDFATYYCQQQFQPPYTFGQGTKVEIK ... 0.067 µM
hu1G7.v1 heavy chain W52Y with light chain of hu1G7.v1.7 (antibody, V domains shown, human IgG) VH: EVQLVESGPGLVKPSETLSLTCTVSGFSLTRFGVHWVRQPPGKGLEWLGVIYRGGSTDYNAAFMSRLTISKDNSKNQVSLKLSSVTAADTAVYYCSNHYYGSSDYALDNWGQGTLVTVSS VL: DIQMTQSPSSLSASVGDRVTITCKASQDVRNLVVWFQQKPGKAPKLLIYSGYYRYTGVPSRFSGSGSGTDFTLTISSLQPEDFATYYCQQHYQPPYTFGQGTKVEIK ... 0.14 µM
hu1G7.v1 heavy chain W52L with light chain of hu1G7.v1 (antibody, V domains shown, human IgG) VH: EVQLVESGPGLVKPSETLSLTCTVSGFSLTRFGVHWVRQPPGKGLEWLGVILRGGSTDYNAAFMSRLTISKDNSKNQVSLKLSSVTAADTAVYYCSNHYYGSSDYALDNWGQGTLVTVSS VL: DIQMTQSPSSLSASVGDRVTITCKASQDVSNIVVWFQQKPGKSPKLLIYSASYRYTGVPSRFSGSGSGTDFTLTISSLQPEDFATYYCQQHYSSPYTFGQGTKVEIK ... 0.1 µM
hu1G7.v1 heavy chain W52F with light chain of hu1G7.v1 (antibody, V domains shown, human IgG) VH: EVQLVESGPGLVKPSETLSLTCTVSGFSLTRFGVHWVRQPPGKGLEWLGVIFRGGSTDYNAAFMSRLTISKDNSKNQVSLKLSSVTAADTAVYYCSNHYYGSSDYALDNWGQGTLVTVSS VL: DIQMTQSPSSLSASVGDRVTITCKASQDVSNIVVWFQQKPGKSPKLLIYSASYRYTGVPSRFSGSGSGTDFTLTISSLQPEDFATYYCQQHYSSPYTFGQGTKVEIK ... 0.25 µM
hu1G7.v1 heavy chain M64F with light chain of hu1G7.v1.6 (antibody, V domains shown, human IgG) VH: EVQLVESGPGLVKPSETLSLTCTVSGFSLTRFGVHWVRQPPGKGLEWLGVIWRGGSTDYNAAFFSRLTISKDNSKNQVSLKLSSVTAADTAVYYCSNHYYGSSDYALDNWGQGTLVTVSS VL: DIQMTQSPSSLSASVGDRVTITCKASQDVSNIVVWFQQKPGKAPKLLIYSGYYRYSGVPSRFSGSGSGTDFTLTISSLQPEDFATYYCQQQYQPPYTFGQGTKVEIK ... 0.0026 µM
hu1G7.v1 heavy chain W52F with light chain of hu1G7.v1.3 (antibody, V domains shown, human IgG) VH: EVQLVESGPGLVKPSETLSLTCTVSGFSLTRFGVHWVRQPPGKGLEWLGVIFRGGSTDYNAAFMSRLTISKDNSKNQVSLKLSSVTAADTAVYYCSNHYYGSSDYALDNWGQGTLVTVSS VL: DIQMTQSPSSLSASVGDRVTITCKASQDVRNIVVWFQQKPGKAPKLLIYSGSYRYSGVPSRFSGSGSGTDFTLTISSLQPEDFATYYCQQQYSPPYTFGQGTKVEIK ... 0.18 µM

Which Kd value is on record for hu1G7.v1 heavy chain M64F with light chain of hu1G7.v1.4 (antibody, V domains shown, human IgG) VH: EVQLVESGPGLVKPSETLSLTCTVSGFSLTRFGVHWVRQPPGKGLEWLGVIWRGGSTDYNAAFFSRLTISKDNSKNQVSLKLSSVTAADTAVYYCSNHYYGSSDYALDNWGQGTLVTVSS VL: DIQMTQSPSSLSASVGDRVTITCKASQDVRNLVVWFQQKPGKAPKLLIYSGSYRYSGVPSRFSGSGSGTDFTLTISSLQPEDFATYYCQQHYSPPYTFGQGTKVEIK ?
0.0025 µM

Thanks! And hu1G7.v1 heavy chain M64I with light chain of hu1G7.v1.7 (antibody, V domains shown, human IgG) VH: EVQLVESGPGLVKPSETLSLTCTVSGFSLTRFGVHWVRQPPGKGLEWLGVIWRGGSTDYNAAFISRLTISKDNSKNQVSLKLSSVTAADTAVYYCSNHYYGSSDYALDNWGQGTLVTVSS VL: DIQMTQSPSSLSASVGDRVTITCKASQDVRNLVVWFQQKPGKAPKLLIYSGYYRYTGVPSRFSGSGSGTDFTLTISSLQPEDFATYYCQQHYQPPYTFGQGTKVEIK ?
0.0026 µM
